Some compounds, each annotated with its measured survival.
test system: DeltatarO mutant; assay: S. aureus survival, RN4220 and DeltatarO strains – OD600, teichoic acid synthesis inhibitors, primary screen (AID 463173); details: S. aureus RN4220 wild type/DeltatarO growth, OD600, 18 h, hits give low values, screened at 18.75 µg/mL (by protocol)
About 4,300 (8.3%) of roughly 52,000 compounds were called active. This is one part of a sample in which actives are shown more often than they occur.
reported-endpoint: survival (%)

compound=COc1ccc(CNC(=O)c2cc3c(=O)[nH]c4ccc(C)cc4c3s2)c(OC)c1 system_name="DeltatarO mutant" reported_endpoint=survival data_value=44
compound=COC(=O)c1c(-c2ccc(Cl)cc2)noc1N1CCN(c2ccc(F)cc2)CC1 system_name="DeltatarO mutant" reported_endpoint=survival data_value=83
compound=COc1ccc(N(C)C(=O)c2cn(C3CCCCC3)c(=O)c3c2c2ccccc2n3C)cc1 system_name="DeltatarO mutant" reported_endpoint=survival data_value=67
compound="Cc1ccc2oc(C(=O)Nc3ccc(S(=O)(=O)N4CCCC(C)C4)cc3)cc(=O)c2c1 (stereo not given)" system_name="DeltatarO mutant" reported_endpoint=survival data_value=69
compound=COc1ccc(CNC(=O)c2cc3c(=O)oc4ccc(C)cc4c3s2)c(OC)c1 system_name="DeltatarO mutant" reported_endpoint=survival data_value=86

* * *

tested on: DeltatarO mutant; test: S. aureus survival, RN4220 and DeltatarO strains – OD600, teichoic acid synthesis inhibitors, primary screen (AID 463173); conditions: S. aureus RN4220 wild type/DeltatarO growth, OD600, 18 h, hits give low values, screened at 18.75 µg/mL (by protocol)
Out of some 52,000 compounds screened, about 4,300 (8.3%) were called active. This excerpt belongs to a sample that is enriched for actives.
Output Condition met for records whose survival is lower than 80%, Condition not met for records at or above 80%.

molecule=CCc1ccc(NCc2cccn2-c2nnc(N3CCCCCC3)s2)cc1 class_name="Condition met"
molecule=COc1ccccc1CNC(=O)c1cccn1-c1nnc(N2CCCCC2)s1 class_name="Condition met"
molecule=COc1ccc(CNC(=O)c2cccn2-c2nnc(N3CCCCC3)s2)c(OC)c1 class_name="Condition met"
molecule=COc1ccc(NC(=O)CSc2oc(-c3ccc(F)cc3)nc2S(=O)(=O)c2ccc(C)cc2)c(OC)c1 class_name="Condition met"
molecule=Cc1ccc(NC(=O)C(=O)NCC2(c3ccccc3)CCCC2)cc1Cl class_name="Condition not met"
molecule=Cc1cc(C)cc(NC(=O)CCS(=O)(=O)c2ccc3nc(C)sc3c2)c1 class_name="Condition met"
molecule=COc1ccc(CNC(=O)c2cccn2-c2nnc(N3CCCC3)s2)c(OC)c1 class_name="Condition not met"
molecule=Cc1ccc(SCC(=O)Nc2cccc(-c3nc4cc(Cl)ccc4o3)c2C)cc1 class_name="Condition met"
molecule=COc1c(Cl)cc(Cl)cc1C(=O)Nc1cccc(-c2nc3ccccc3o2)c1C class_name="Condition not met"
molecule=Cc1nc2ccc(S(=O)(=O)CCC(=O)Nc3ccc(Cl)cc3)cc2s1 class_name="Condition met"
molecule=Cc1ccc(NC(=O)CCS(=O)(=O)c2ccc3nc(C)sc3c2)cc1 class_name="Condition met"
molecule=COc1ccccc1CNC(=O)c1cccn1-c1nnc(N2CCCC2)s1 class_name="Condition not met"
molecule=Cc1c(NC(=O)C(C)(C)Oc2ccc(Cl)cc2)cccc1-c1nc2ccccc2o1 class_name="Condition met"
molecule=CNC(=O)c1c(NC(=O)/C=C/c2ccccc2)sc2c1CCC2 class_name="Condition not met"
molecule="CN(C)c1ccc(C(CNS(=O)(=O)c2ccc(Cl)cc2)N2CCCC2)cc1 (configuration not stated)" class_name="Condition met"
molecule=Cc1ccc2oc(-c3ccc(Cl)cc3)c(O)c(=O)c2c1 class_name="Condition met"
molecule=CCc1nc2nc(C)c(NS(=O)(=O)c3ccc(F)c(C)c3)c(=O)n2[nH]1 class_name="Condition not met"
molecule=COc1ccc(NCc2cccn2-c2nnc(N3CCCCCC3)s2)cc1 class_name="Condition met"
molecule=Cc1c(NC(=O)C(C)(C)Oc2ccc(Cl)cc2)cccc1-c1nc2ncccc2o1 class_name="Condition met"

* * *

system: DeltatarO mutant; test: S. aureus survival, RN4220 and DeltatarO strains – OD600, teichoic acid synthesis inhibitors, primary screen (AID 463173); conditions: S. aureus RN4220 wild type/DeltatarO growth, OD600, 18 h, hits give low values, screened at 18.75 µg/mL (by protocol)
The campaign covered roughly 52,000 compounds. About 4,300 (8.3%) were called active. Many of the other results were omitted from the sample, so actives are more common in it than they were.
Some molecules, each annotated with its measured survival.
reported-endpoint: survival (%)

molecule=O=C(CSc1ccc(-c2cccs2)nn1)Nc1ccccc1 reported_endpoint=survival display_unit=% data_value=76
molecule=COC(=O)c1ccccc1NC(=O)C1(c2cccs2)CCOCC1 reported_endpoint=survival display_unit=% data_value=83
molecule="COc1ccc(N2CCN(C(=O)C(C)n3c(=O)cc(C(F)(F)F)c4c(C)nn(C)c43)CC2)cc1 (stereo not given)" reported_endpoint=survival display_unit=% data_value=97
molecule="CN(C(=O)c1ccc2c(c1)N(Cc1cccc(Cl)c1)C(=O)c1ccccc1S2=O)C1CCCCC1 (stereo not given)" reported_endpoint=survival display_unit=% data_value=101
molecule=Oc1ccc(CNc2ccccc2Cl)c2cccnc12 reported_endpoint=survival display_unit=% data_value=115
molecule="CC1(C)CC(=O)C2=C(C1)OC(N)=C(C#N)C2c1ccc2c(c1Cl)OCO2 (stereo not given)" reported_endpoint=survival display_unit=% data_value=97
molecule="O=C(NCCC1=CCCCC1)c1ccc2c(c1)N(Cc1ccccc1)C(=O)c1ccccc1S2=O (stereo not given)" reported_endpoint=survival display_unit=% data_value=70
molecule="CCOC(=O)N1CCC(NC(=O)c2ccc3c(c2)N(Cc2ccccc2C)C(=O)c2ccccc2S3=O)CC1 (stereo not given)" reported_endpoint=survival display_unit=% data_value=53
molecule=Cc1ccc(O)c(NC(=O)c2cc(-c3ccccc3O)no2)c1 reported_endpoint=survival display_unit=% data_value=80
molecule="CC1CCC(NC(=O)c2ccc3c(c2)N(Cc2ccccc2)C(=O)c2ccccc2S3=O)CC1 (stereo not given)" reported_endpoint=survival display_unit=% data_value=104

* * *

system: DeltatarO mutant; test: S. aureus survival, RN4220 and DeltatarO strains – OD600, teichoic acid synthesis inhibitors, primary screen (AID 463173); conditions: S. aureus RN4220 wild type/DeltatarO growth, OD600, 18 h, hits give low values, screened at 18.75 µg/mL (by protocol)
The campaign covered roughly 52,000 compounds. About 4,300 (8.3%) were called active. For the sample, actives were picked, then their nearest neighbours and some compounds at random.
Output TRUE for records whose survival is lower than 70%, FALSE for records at or above 70%.

structure_string=COc1cccc(CNC(=O)c2c(C)nn(-c3cccc(C)c3)c2-n2cccc2)c1 class_name=FALSE
structure_string=Cc1cccc(-n2nc(C)c(C(=O)N3CCN(c4ccccc4)CC3)c2-n2cccc2)c1 class_name=TRUE
structure_string=COc1ccc(C)cc1NS(=O)(=O)c1ccc2c(c1)[C@H]1C=CC[C@H]1[C@@H](c1cccc(Cl)c1)N2 class_name=TRUE
structure_string=CCOC(=O)N1CCC(NC(=O)c2c(C)nn(-c3cccc(C)c3)c2-n2cccc2)CC1 class_name=FALSE
structure_string=CCOC(=O)N1CCN(C(=O)c2c(C)nn(-c3cccc(C)c3)c2-n2cccc2)CC1 class_name=TRUE

* * *

test system: DeltatarO mutant; assay: S. aureus survival, RN4220 and DeltatarO strains – OD600, teichoic acid synthesis inhibitors, primary screen (AID 463173); conditions: S. aureus RN4220 wild type/DeltatarO growth, OD600, 18 h, hits give low values, screened at 18.75 µg/mL (by protocol)
About 4,300 (8.3%) of roughly 52,000 compounds were called active. The entries come from a sample that favours actives as a whole.
Some compounds, each annotated with its measured survival.
reported-endpoint: survival

compound=Cc1ccc(CCNC(=O)c2ccc(Nc3nc4ccccc4n4nnnc34)cc2)cc1 data_value="72% (inactive)"
compound=COc1ccc(Cl)cc1NC(=O)c1cc(S(=O)(=O)NC2CCCCCC2)ccc1F data_value="71% (inactive)"
compound="O=C(NC1CCCC1)C(c1ccncc1)N(CCCN1CCOCC1)C(=O)c1ccc(-c2ccccc2)[nH]1 (stereo unspecified)" data_value="76% (inactive)"
compound="CC(C)C(OC(=O)c1cc2occc2n1C(C)C)C(=O)NCC1CCCO1 (stereo unspecified)" data_value="67% (inactive)"
compound=COc1cccc2cc(-c3nc(-c4ccc(C)cc4)c(C)s3)c(=O)oc12 data_value="46% (active)"
compound=CCOc1cc(NC(=S)NCCCN2CCOCC2)c(OCC)cc1NC(=O)C1CC1 data_value="94% (inactive)"
compound=O=C(NCCS(=O)(=O)N1CCN(c2ccc(F)cc2)CC1)C(c1ccccc1)c1ccccc1 data_value="113% (inactive)"
compound=Cc1cccc2sc(N(Cc3cccnc3)C(=O)CCc3ccccc3)nc12 data_value="117% (inactive)"
compound=Cc1ccccc1NC(=O)c1c(C)oc2ccc(O)c(CN3CCN(C)CC3)c12 data_value="77% (inactive)"
compound=COc1ccccc1CNC(=O)Nc1ccc2c(c1)N(C)C(=O)c1ccccc1S2 data_value="70% (inactive)"
compound=CCc1ccc(NC(=O)CSc2ccc(-c3cccs3)nn2)cc1 data_value="72% (inactive)"
compound=Cc1c(Cl)cccc1NC(=O)CCS(=O)(=O)c1cccc2nsnc12 data_value="78% (inactive)"
compound="COCCN1C(=O)N(c2cccc(OC)c2)C(=O)C1CC(=O)Nc1ccccc1 (stereo unspecified)" data_value="139% (inactive)"
compound=CC(C)c1ccc(NC(=O)CCNS(=O)(=O)c2cccc3nsnc23)cc1 data_value="50% (inactive)"
compound=Cc1ccc(NC(=O)COc2ccc(-c3nn(C)c(=O)c4ccccc34)cc2)c(C)c1 data_value="73% (inactive)"
compound="Cc1ccc(Cl)cc1NC(=O)Cn1nnc2sc3c(c2c1=O)CCC(C(C)(C)C)C3 (stereo unspecified)" data_value="58% (inactive)"
compound=CCCCOc1ccc(-c2cc3c(=O)n(CC(=O)Nc4ccc(Cl)cc4Cl)ccn3n2)cc1 data_value="133% (inactive)"
compound=COc1ccc2oc(=O)c(-c3nnc(-c4ccc(C)cc4)o3)cc2c1 data_value="138% (inactive)"
compound=COc1ccc(NC(=O)c2ccc(CN3C(=O)CCn4nc(C)cc43)cc2)c(OC)c1 data_value="99% (inactive)"
compound="Cc1noc(-c2ccc(N3CCCCC3C)c([N+](=O)[O-])c2)n1 (stereo unspecified)" data_value="108% (inactive)"
compound=O=c1c2sc3ccccc3c2n(Cc2ccc(Cl)cc2)c(=O)n1Cc1ccco1 data_value="83% (inactive)"
